The origin of these recorded values is paper PMC6920776.

The next entries give measured IC50 for UniProt P06276.
Sequence (P06276 29-602): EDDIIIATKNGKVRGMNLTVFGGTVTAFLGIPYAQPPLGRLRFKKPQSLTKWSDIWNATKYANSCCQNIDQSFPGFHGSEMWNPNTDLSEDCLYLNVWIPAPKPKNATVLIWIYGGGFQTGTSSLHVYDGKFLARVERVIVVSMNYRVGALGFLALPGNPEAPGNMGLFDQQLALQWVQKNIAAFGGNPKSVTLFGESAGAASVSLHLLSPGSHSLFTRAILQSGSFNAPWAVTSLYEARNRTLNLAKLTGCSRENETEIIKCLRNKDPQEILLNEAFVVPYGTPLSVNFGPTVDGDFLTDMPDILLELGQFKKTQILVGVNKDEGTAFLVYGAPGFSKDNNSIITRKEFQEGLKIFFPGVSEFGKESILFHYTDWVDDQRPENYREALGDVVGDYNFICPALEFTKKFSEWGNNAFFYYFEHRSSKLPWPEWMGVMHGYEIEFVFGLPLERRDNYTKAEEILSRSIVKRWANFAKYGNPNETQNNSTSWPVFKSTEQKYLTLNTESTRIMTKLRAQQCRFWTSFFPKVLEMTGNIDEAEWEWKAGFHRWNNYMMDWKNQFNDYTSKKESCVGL
Give bare numbers, in µM.

O=c1c(C=NNc2ccc(C(F)(F)F)cc2)coc2c1ccc1oc(-c3ccccc3)cc12    18.7
O=Cc1coc2c(ccc3oc(-c4cccc(F)c4)cc32)c1=O    9.2

Kindly consider the entry below.
Recorded IC50 (compound Cc1ccc(-c2cc3c(ccc4c(=O)c(C=O)coc43)o2)cc1 ): 25.9

====

Molecular target: AChE (Homo sapiens, UniProt P22303)
Sequence (P22303 32-614): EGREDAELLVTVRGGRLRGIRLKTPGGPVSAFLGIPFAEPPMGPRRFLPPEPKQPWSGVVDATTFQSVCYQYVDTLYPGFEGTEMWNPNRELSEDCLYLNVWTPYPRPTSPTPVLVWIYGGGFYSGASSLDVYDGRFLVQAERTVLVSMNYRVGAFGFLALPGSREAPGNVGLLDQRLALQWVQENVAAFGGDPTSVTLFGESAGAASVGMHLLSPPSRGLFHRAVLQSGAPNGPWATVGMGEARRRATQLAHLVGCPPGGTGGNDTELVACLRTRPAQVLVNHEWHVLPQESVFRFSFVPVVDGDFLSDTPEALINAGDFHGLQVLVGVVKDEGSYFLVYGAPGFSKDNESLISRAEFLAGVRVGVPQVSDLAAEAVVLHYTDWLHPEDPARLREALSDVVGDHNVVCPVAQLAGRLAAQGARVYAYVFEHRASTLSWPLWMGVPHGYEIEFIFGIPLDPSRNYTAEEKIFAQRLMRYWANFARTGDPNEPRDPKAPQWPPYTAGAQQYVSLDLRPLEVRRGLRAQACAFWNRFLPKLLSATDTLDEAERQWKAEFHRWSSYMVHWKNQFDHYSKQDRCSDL
Experiment: biochemical
Conditions: SI = IC50 (AChE)/IC50 (BChE)
assay-endpoint: Selectivity index (SI)
Give bare numbers.

Sample answers from the record:
COc1ccc(-c2cc3c(ccc4c(=O)c(C=O)coc43)o2)cc1 [Compound 2f]    1.6
O=Cc1coc2c(ccc3oc(-c4cccc(Cl)c4)cc32)c1=O [Compound 2d]    1.5
O=c1c(C=NNc2ccc(C(F)(F)F)cc2)coc2c1ccc1oc(-c3cccc(Cl)c3)cc12 [Compound 3d]    0.8
Cc1ccc(-c2cc3c(ccc4c(=O)c(C=NNc5ccc(C(F)(F)F)cc5)coc43)o2)cc1 [Compound 3h]    0.6
O=Cc1coc2c(ccc3oc(-c4ccc(Cl)cc4)cc32)c1=O [Compound 2e]    0.8
O=Cc1coc2c(ccc3oc(C4=CCCCC4)cc32)c1=O [Compound 2i]    0.5

Kindly consider the entry below.
Tested system AChE (Homo sapiens, UniProt P22303); Selectivity index (SI) recorded for O=c1c(C=NNc2ccc(C(F)(F)F)cc2)coc2c1ccc1oc(-c3ccccc3)cc12 [Compound 3a] was 0.8
